protocol-details: background-corrected fluorescence of 3'-dye-labeled ssDNA relative to brightest sequence (3'-GCGCG) (fraction); higher = brighter dye fluorescence (less quenching)
measurement-parameters: dye: Cy5 (3' terminal)
Decide using background-corrected fluorescence: a value greater than or equal to 0.4 is Yes, a smaller one is No.

>  <residue-sequence>
TTTTTTGCGCAGCATCATCATTTTTTTTTTTTTTTATTGG [GGTTA]

>  <class-label>
Yes

$$$$
>  <residue-sequence>
TTTTTTGATCAGCAGCATGATTTTTTTTTTTTTTTCGTTC [CTTGC]

>  <class-label>
No

$$$$
>  <residue-sequence>
TTTTTTCAGCAGCATCATGCTTTTTTTTTTTTTTTGTTGA [AGTTG]

>  <class-label>
Yes

$$$$
>  <residue-sequence>
TTTTTTGCTGATCATCATGCTTTTTTTTTTTTTTTACGGA [AGGCA]

>  <class-label>
Yes

$$$$
>  <residue-sequence>
TTTTTTCATGATGCTGAGCATTTTTTTTTTTTTTTGCACT [TCACG]

>  <class-label>
No

$$$$
>  <residue-sequence>
TTTTTTGATGCTCATCATGATTTTTTTTTTTTTTTCAGGC [CGGAC]

>  <class-label>
Yes

$$$$
>  <residue-sequence>
TTTTTGCATGAGCATGCTGCTTTTTTTTTTTTTTTTCTAA [AATCT]

>  <class-label>
Yes

$$$$
>  <residue-sequence>
TTTTTGCATGATCATGCGCATTTTTTTTTTTTTTTTCGAT [TAGCT]

>  <class-label>
Yes

$$$$
>  <residue-sequence>
TTTTTTCATGCTGATCATGATTTTTTTTTTTTTTTGACGC [CGCAG]

>  <class-label>
Yes

$$$$
>  <residue-sequence>
TTTTTTGATCAGCATGATGCTTTTTTTTTTTTTTTCGTCA [ACTGC]

>  <class-label>
No

$$$$
>  <residue-sequence>
TTTTTTGCTGATCAGCATCATTTTTTTTTTTTTTTACGTG [GTGCA]

>  <class-label>
Yes

$$$$
>  <residue-sequence>
TTTTTTGCGCATGCTCATCATTTTTTTTTTTTTTTATAGG [GGATA]

>  <class-label>
Yes

$$$$
>  <residue-sequence>
TTTTTGCATCAGCAGCATGCTTTTTTTTTTTTTTTTGTTA [ATTGT]

>  <class-label>
Yes

$$$$
>  <residue-sequence>
TTTTTTGCTCATCATCATGCTTTTTTTTTTTTTTTAGGGA

>  <class-label>
Yes

$$$$
>  <residue-sequence>
TTTTTTGATGATCATCATGCTTTTTTTTTTTTTTTCCGGA [AGGCC]

>  <class-label>
Yes

$$$$
>  <residue-sequence>
TTTTTTGCTGCTCATGATGATTTTTTTTTTTTTTTAAGCC [CCGAA]

>  <class-label>
No

$$$$
>  <residue-sequence>
TTTTTTCATCATGCGCATGCTTTTTTTTTTTTTTTGGATA [ATAGG]

>  <class-label>
Yes

$$$$
>  <residue-sequence>
TTTTTTGATGCTGCTGCTGCTTTTTTTTTTTTTTTCAAAA [AAAAC]

>  <class-label>
Yes

$$$$
>  <residue-sequence>
TTTTTGCATGCTCATCAGCATTTTTTTTTTTTTTTTAGGT [TGGAT]

>  <class-label>
Yes

$$$$
>  <residue-sequence>
TTTTTGCAGCATGCTGCTGATTTTTTTTTTTTTTTTTAAC [CAATT]

>  <class-label>
No

$$$$
>  <residue-sequence>
TTTTTTCAGCATGCGCAGCATTTTTTTTTTTTTTTGTATT [TTATG]

>  <class-label>
No

$$$$
>  <residue-sequence>
TTTTTTCAGCATGCTGATCATTTTTTTTTTTTTTTGTACG

>  <class-label>
Yes

$$$$
>  <residue-sequence>
TTTTTGCATGCTGCTCATCATTTTTTTTTTTTTTTTAAGG [GGAAT]

>  <class-label>
Yes

$$$$
>  <residue-sequence>
TTTTTTGATGATCATCAGCATTTTTTTTTTTTTTTCCGGT [TGGCC]

>  <class-label>
Yes

$$$$
>  <residue-sequence>
TTTTTTCAGCATGATCATGATTTTTTTTTTTTTTTGTCGC [CGCTG]

>  <class-label>
Yes

$$$$
>  <residue-sequence>
TTTTTGCATGCGCATGAGCATTTTTTTTTTTTTTTTATCT [TCTAT]

>  <class-label>
No

$$$$
>  <residue-sequence>
TTTTTTCATGCTGATGCGCATTTTTTTTTTTTTTTGACAT [TACAG]

>  <class-label>
No

$$$$
>  <residue-sequence>
TTTTTTGATGCGCATGCTCATTTTTTTTTTTTTTTCATAG [GATAC]

>  <class-label>
Yes

$$$$
>  <residue-sequence>
TTTTTTGATGATGCTGCTGATTTTTTTTTTTTTTTCCAAC [CAACC]

>  <class-label>
No

$$$$
>  <residue-sequence>
TTTTTTCAGCATGATGCTGCTTTTTTTTTTTTTTTGTCAA [AACTG]

>  <class-label>
Yes

$$$$
>  <residue-sequence>
TTTTTGCATCAGCATGAGCATTTTTTTTTTTTTTTTGTCT [TCTGT]

>  <class-label>
No

$$$$
>  <residue-sequence>
TTTTTTCAGCATCATCATCATTTTTTTTTTTTTTTGTGGG [GGGTG]

>  <class-label>
Yes

$$$$
>  <residue-sequence>
TTTTTTGCTGCTGATGCTGATTTTTTTTTTTTTTTAACAC [CACAA]

>  <class-label>
No

$$$$
>  <residue-sequence>
TTTTTTCAGCATCATGCTGCTTTTTTTTTTTTTTTGTGAA [AAGTG]

>  <class-label>
Yes

$$$$
>  <residue-sequence>
TTTTTTCATGCGCATGCGCATTTTTTTTTTTTTTTGATAT [TATAG]

>  <class-label>
No

$$$$
>  <residue-sequence>
TTTTTTCATCATGCTGCGCATTTTTTTTTTTTTTTGGAAT [TAAGG]

>  <class-label>
Yes

$$$$
